assayedSystem: bovine serum albumin (BSA) (Bos taurus, UniProt P02769)
Construct: gene ALB
Sequence (P02769 25-607): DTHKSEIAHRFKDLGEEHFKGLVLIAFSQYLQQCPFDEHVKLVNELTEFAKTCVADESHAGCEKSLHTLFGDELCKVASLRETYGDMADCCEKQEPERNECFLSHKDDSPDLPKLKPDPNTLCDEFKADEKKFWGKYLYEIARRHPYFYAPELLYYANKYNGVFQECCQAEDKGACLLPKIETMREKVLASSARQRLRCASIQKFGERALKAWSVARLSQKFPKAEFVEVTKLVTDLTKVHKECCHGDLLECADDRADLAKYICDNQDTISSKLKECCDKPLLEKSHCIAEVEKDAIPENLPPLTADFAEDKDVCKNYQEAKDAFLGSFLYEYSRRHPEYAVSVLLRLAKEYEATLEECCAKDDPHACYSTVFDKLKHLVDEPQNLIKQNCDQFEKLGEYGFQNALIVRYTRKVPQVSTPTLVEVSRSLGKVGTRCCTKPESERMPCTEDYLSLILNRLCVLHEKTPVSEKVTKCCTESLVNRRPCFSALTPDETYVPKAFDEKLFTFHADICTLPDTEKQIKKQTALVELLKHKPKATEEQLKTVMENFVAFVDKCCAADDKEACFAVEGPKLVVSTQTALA
test: BSA intrinsic fluorescence quenching titration, ex […] nm
Assay type: binding
experimentalParameters: double-log; PBS pH 7.2, 25 °C, BSA 11 µM, ligand 0-20 µM
Recorded KA (×10^4 M^-1) by entry

Observe how each entry below is paired with its result.
{"compound": "CCCCNCc1cc(C)c(O)c(-c2nc3ccccc3o2)c1 [compound 12, benzazole 12]", "KA (×10^4 M^-1)": "0.61 ×10^4 M^−1"}
{"compound": "CCCCNCc1cc(C)c(O)c(-c2nc3ccccc3s2)c1 [compound 15, benzazole 15]", "KA (×10^4 M^-1)": "0.73 ×10^4 M^−1"}
{"compound": "CCCCCCCCCCCCCCCCCCNCc1cc(C)c(O)c(-c2nc3ccccc3o2)c1 [compound 14, benzazole 14]", "KA (×10^4 M^-1)": "0.59 ×10^4 M^−1"}
{"compound": "CCCCCCCCCCCCNCc1cc(C)c(O)c(-c2nc3ccccc3s2)c1 [compound 16, benzazole 16]", "KA (×10^4 M^-1)": "0.79 ×10^4 M^−1"}
{"compound": "CCCCCCCCCCCCCCCCCCNCc1cc(C)c(O)c(-c2nc3ccccc3s2)c1 [compound 17, benzazole 17]", "KA (×10^4 M^-1)": "0.69 ×10^4 M^−1"}

stdin: Let me know recorded KA (×10^4 M^-1) for CCCCCCCCCCCCNCc1cc(C)c(O)c(-c2nc3ccccc3o2)c1 [compound 13, benzazole 13] , thanks.
stdout: 0.74 ×10^4 M^−1
